B1: MYL5 (parent)
chain: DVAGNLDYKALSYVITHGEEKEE

variants of: B1; assay: protein stability index of a GFP-peptide fusion (GPS, HEK-293T) (PSI 1-6); higher = more stable; details: c terminus: native;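 note: lentivirally expressed fusions sorted by FACS into six bins by GFP to DsRed ratio, PSI derived from sequencing read proportions per bin multiplied by bin number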
Overview of reported protein stability index across a group of variants:
# output: bare number, no unit

residueSequence	parameter	assayValue
DVNGNLDYKALSYVITHGEEKEE [A3N]	protein stability index	1.54

## Task Give recorded protein stability index. DVAGNLDYKSLSYVITHGEEKEE [A10S]
## Result 2.08

## Task Give recorded protein stability index. DVAGNLDYKALSEVITHGEEKEE [Y13E]
## Result 2.9

## Task Give recorded protein stability index. DVAGQLDYKALSYVITHGEEKEE [N5Q]
## Result 2.61

## Task Give recorded protein stability index. DVAGNLDYKALSYVITHQEEKEE [G18Q]
## Result 1.94

## Task Give recorded protein stability index. DVAGNLDYKALSYVITHAEEKEE [G18A]
## Result 1.45
